Cited source for all entries: patent US20090221680

Listing: binding signal of selected binders
- experimental-system: prothrombin (Homo sapiens, UniProt P00734 P00734:44-622)
- assay-comment: filter; 50 nM prothrombin
- measurement-context: tags: Athens Research
Your answer is read as % bound, so omit the unit and give the number.

TCCTGAGGGATCAGGCTAGGTTGGGTAGGGTGGTGGCTGAGGATCGATC (ssDNA) [AMX(398)_C8 (ARC2027)]    48.5

Can you share its binding signal? I mean this binder: TCCCAAGGATCCGGGGTAGTTAGTGGCTGAGGTGGCTGAGGATCGATC (ssDNA) [AMX(398)_C2] 0.66

How about this binder: TCCCATGATCGGGTCGGTATTTGTTGGTCAGGGTGGCTGAGGATCGATC (ssDNA) [AMX(398)_D3] 20.8

How about this binder: TCCTTGTCGAGCCTTGGGGTAGTGTTGGTTTGGGTGGCTGAGGATCGATC (ssDNA) [AMX(399)_F3] 8.7
